In this section, each of the compounds is paired with its reported DC50.
target: HiBit-BRM fusion protein (Homo sapiens); construct: expressed in transfected cells; experiment: HiBiT-BRM cell-based degradation assay (Nano-Glo HiBiT lytic detection, 24 h); details: HeLa cell line expressing HiBiT-BRM, read-out: BRM HiBit Degradation IC50
Sequence (P51531 whole entry, the tested form may be a part): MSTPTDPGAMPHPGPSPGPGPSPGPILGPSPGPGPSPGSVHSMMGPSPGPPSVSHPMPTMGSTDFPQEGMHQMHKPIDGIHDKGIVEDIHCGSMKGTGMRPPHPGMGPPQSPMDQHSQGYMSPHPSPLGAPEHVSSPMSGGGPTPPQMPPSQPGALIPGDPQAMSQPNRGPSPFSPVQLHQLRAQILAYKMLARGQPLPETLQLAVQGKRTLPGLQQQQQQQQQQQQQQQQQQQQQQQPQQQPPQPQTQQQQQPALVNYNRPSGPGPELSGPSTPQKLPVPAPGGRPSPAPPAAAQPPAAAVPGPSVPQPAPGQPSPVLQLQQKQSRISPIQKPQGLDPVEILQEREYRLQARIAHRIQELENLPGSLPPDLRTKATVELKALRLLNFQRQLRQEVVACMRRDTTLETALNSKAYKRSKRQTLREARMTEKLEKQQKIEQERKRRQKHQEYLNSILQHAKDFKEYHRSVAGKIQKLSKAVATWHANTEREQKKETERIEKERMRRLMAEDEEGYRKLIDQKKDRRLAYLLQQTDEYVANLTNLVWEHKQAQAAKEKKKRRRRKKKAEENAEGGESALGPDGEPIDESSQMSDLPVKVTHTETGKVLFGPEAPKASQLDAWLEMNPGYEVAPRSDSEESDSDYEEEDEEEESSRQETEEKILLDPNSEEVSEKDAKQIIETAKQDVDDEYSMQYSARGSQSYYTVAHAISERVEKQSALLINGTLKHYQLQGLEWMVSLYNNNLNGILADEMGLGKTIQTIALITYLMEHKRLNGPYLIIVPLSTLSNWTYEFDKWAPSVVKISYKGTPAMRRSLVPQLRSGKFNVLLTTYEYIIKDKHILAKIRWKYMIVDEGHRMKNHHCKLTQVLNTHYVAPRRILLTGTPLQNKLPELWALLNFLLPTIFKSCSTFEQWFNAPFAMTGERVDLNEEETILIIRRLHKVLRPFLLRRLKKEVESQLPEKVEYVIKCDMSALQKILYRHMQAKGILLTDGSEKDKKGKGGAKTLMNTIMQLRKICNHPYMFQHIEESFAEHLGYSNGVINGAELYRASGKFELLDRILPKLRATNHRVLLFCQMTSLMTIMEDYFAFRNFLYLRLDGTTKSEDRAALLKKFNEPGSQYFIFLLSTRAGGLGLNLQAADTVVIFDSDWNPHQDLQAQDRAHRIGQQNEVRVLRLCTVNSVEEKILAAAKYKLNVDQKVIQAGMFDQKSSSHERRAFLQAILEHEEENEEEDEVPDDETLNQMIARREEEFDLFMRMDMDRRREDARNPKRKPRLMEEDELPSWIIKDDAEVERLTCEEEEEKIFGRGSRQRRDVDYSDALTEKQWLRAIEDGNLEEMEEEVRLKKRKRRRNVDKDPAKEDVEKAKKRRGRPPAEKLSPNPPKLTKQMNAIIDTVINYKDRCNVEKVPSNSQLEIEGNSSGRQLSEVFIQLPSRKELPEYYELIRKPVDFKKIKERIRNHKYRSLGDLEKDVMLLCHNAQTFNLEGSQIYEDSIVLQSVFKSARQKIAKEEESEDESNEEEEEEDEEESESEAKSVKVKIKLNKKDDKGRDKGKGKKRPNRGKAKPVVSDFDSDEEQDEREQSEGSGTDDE
experimental_endpoint: DC50

* Cc1ncsc1-c1ccc([C@H](C)NC(=O)[C@@H]2C[C@@H](O)CN2C(=O)[C@@H](c2cc(-c3cnc(N4CCC(c5cc6nnc(-c7ccccc7O)cc6n5C5(C)CC5)CC4)nc3)no2)C(C)C)cc1 | < 0.01 µM
* Cc1ncsc1-c1ccc([C@H](C)NC(=O)[C@@H]2C[C@@H](O)CN2C(=O)[C@@H](c2cc(-c3cnc(N4CCC(c5cc6nnc(-c7ccccc7O)cc6n5C5CC5)CC4)nc3)no2)C(C)C)cc1 | < 0.01 µM
* Cc1ncsc1-c1ccc([C@H](C)NC(=O)[C@@H]2C[C@@H](O)CN2C(=O)[C@@H](C(C)C)n2cc(-c3cnc(N4CC[C@@H](c5cc6nnc(-c7ccccc7O)cc6n5C5CC5)C4)nc3)nn2)cc1 | < 0.01 µM
* C#Cc1ccc(CNC(=O)[C@@H]2C[C@@H](O)CN2C(=O)C(c2cc(N3CC4(CC(c5cc6nnc(-c7ccccc7O)cc6n5C5CCC5)C4)C3)no2)C(C)C)c(Cl)c1 (stereo partly shown) | > 0.01 µM
* Cc1ncsc1-c1ccc([C@H](C)NC(=O)[C@@H]2C[C@@H](O)CN2C(=O)[C@@H](c2cc(N3CCC4(CC3)CC(c3cc5nnc(-c6ccccc6O)cc5n3CC3CC3)C4)no2)C(C)C)cc1 | < 0.01 µM
* Cc1ncsc1-c1ccc([C@H](C)NC(=O)[C@@H]2C[C@@H](O)CN2C(=O)[C@@H](c2cc(N(C)CCN3CC(c4cc5nnc(-c6ccccc6O)cc5[nH]4)C3)no2)C(C)C)cc1 | > 0.1 µM
* CC(C)C(C(=O)N1C[C@H](O)C[C@H]1C(=O)NC1CCC1)c1cc(N2CC3(CC(c4cc5nnc(-c6ccccc6O)cc5n4C4CCC4)C3)C2)no1 (stereo partly shown) | > 0.01 µM
* CC(C)[C@@H](C(=O)N1C[C@H](O)C[C@H]1C(=O)N[C@@H](C)c1ccccc1)c1cc(-c2cnc(N3CC[C@H](c4cc5nnc(-c6ccccc6O)cc5n4C4CC4)C3)nc2)no1 | < 0.01 µM
* Cc1ncsc1-c1ccc([C@H](C)NC(=O)[C@@H]2C[C@@H](O)CN2C(=O)[C@@H](c2cc(OCC(=O)N3CC(c4cc5nnc(-c6ccccc6O)cc5[nH]4)C3)no2)C(C)C)cc1 | > 0.1 µM
* CC(C)C(C(=O)N1C[C@H](O)C[C@H]1C(=O)NC1CCCC1)c1cc(N2CC3(CC(c4cc5nnc(-c6ccccc6O)cc5n4C4CCC4)C3)C2)no1 (stereo partly shown) | > 0.01 µM
